The reported numbers originate from patent US7342012B2.

Measurement Name: melting point (°C)

[[record]]
compound = "O=C1N(c2cc(Cl)cc(Cl)c2)C(=O)C2(Cc3ccccc3)CCCN12 (stereo not shown) [Example 267]"
measured = 173.8

[[record]]
compound = "CC(C)(C)OC(=O)CN1CCN2C(=O)N(c3cc(Cl)cc(Cl)c3)C(=O)C2(Cc2ccc(Br)cc2)C1 (stereo not shown) [Example 30]"
measured = 74.7

[[record]]
compound = "CNC(=O)C1CN2C(=O)N(c3cc(Cl)cc(Cl)c3)C(=O)C2(Cc2ccc(OC(F)(F)F)cc2)C1 (stereo not shown) [Example 319]"
measured = 122.7

[[record]]
compound = "CC(C)(C)OC(=O)N1CCC2(Cc3ccc(C#N)cc3)C(=O)N(c3cc(Cl)nc(Cl)c3)C(=O)N12 (stereo not shown) [Example 56]"
measured = 179


* * *

Listed here are compounds together with their documented melting point.
Measurement Name: melting point (°C)

[[record]]
compound = "N#Cc1ccc(CC23CCCN2C(=O)N(c2cc(Cl)cc(-n4cccc4C=O)c2)C3=O)cc1 (stereo not shown)"
measurement_name = "melting point"
measured = 109.7

[[record]]
compound = "N#Cc1ccc(C(F)(F)C23CCCN2C(=O)N(c2cc(Cl)cc(Cl)c2)C3=O)cc1 (stereo not shown)"
measurement_name = "melting point"
measured = 66

[[record]]
compound = "O=C1N(c2cc(Cl)c(OCc3ccccc3)c(Cl)c2)C(=O)C2(Cc3ccc(Br)cc3)CCCN12 (stereo not shown)"
measurement_name = "melting point"
measured = 62

[[record]]
compound = "N#Cc1ccc(C[C@]23C[C@@H](O)CN2C(=O)N(c2cc(Cl)nc(Cl)c2)C3=O)cc1"
measurement_name = "melting point"
measured = 97.6


* * *

Counter-ions that a name gives are not always drawn.
Cut-off 100 °C on melting point: below means satisfied, at or above means not satisfied.

[[record]]
compound = "N#Cc1cc(CC23CCCN2C(=O)N(c2cc(Cl)nc(Cl)c2)C3=O)ccc1O (stereo not drawn)"
answer_label = "not satisfied"

[[record]]
compound = "COc1cc(OC)cc(N2C(=O)N3CCCC3(Cc3ccc(Br)cc3)C2=O)c1 (stereo not drawn)"
answer_label = "not satisfied"

[[record]]
compound = "CNC(=O)C1CN2C(=O)N(c3cc(Cl)cc(Cl)c3)C(=O)C2(Cc2ccc(OC(F)(F)F)cc2)C1 (stereo not drawn) [Example 314]"
answer_label = "not satisfied"

[[record]]
compound = "COC(=O)N[C@@H]1CN2C(=O)N(c3cc(Cl)nc(Cl)c3)C(=O)[C@@]2(Cc2ccc(OC(F)(F)F)cc2)C1"
answer_label = "not satisfied"

[[record]]
compound = "O=C1N(c2cc(Cl)cc(Cl)c2)C(=O)C2(Cc3ccc([S+]([O-])C(F)(F)F)cc3)CCCN12 (stereo not drawn)"
answer_label = "satisfied"

[[record]]
compound = "N#Cc1ccc(CC23CCCN2C(=O)N(Cc2cc(Cl)cc(Cl)c2)C3=O)cc1 (stereo not drawn)"
answer_label = "not satisfied"

[[record]]
compound = "O=C1N(c2cc(Cl)nc(Cl)c2)C(=O)C2(Cc3cccc([N+](=O)[O-])c3)CCCN12 (stereo not drawn)"
answer_label = "not satisfied"

[[record]]
compound = "CSc1cccc(N2C(=O)N3CCCC3(Cc3ccc(Br)cc3)C2=O)c1 (stereo not drawn)"
answer_label = "satisfied"

[[record]]
compound = "O=C1N(c2cc(Cl)cc(Cl)c2)C(=O)[C@]2(Cc3ccc(Br)cc3)C[C@@H](O)CN12"
answer_label = "not satisfied"

[[record]]
compound = "O=C1CN2C(=O)N(c3cc(Cl)nc(Cl)c3)C(=O)[C@@]2(Cc2ccc(OC(F)(F)F)cc2)C1"
answer_label = "not satisfied"

[[record]]
compound = "CN1CCN(C(=O)CCC(=O)N[C@@H]2CN3C(=O)N(c4cc(Cl)nc(Cl)c4)C(=O)[C@@]3(Cc3ccc(OC(F)(F)F)cc3)C2)CC1"
answer_label = "satisfied"

[[record]]
compound = "CCN(CC)CCN1CCN2C(=O)N(c3cc(Cl)cc(Cl)c3)C(=O)C2(Cc2ccc(Br)cc2)C1 (stereo not drawn) (as salt: HCl)"
answer_label = "not satisfied"

